target or system: H^+ /K^+ -ATPase (Oryctolagus cuniculus)
Construct: The gastric mucous membrane was removed from rabbit; from tissue; host or cells: rabbit gastric mucosa, microsomal fraction (77,000 xg)
assay overview: Inhibition of H+/K+-ATPase enzyme activity in vitro
Type: biochemical, rabbit
setup conditions: rabbit gastric microsomal H+/K+-ATPase, 5 min pre-incubation at 37° C., 4 mM ATP; read-out: IC50
Method: The gastric mucous membrane was removed from rabbit and then centrifuged with 77,000 xg using a ultracentrifuge to separate the microsomal fraction which was used as the source of H^+ /K^+ -ATPase enzyme for this test. […] Then, the amount of inorganic phosphorus thus produced was determined using a spectrophotometer at 660 nm and converted into the amount of protein according to Lowry method. […]
assay readout: IC50 (µM)

Solved entries (count: 6):
>>> reported_result("[O-][S+](Cc1ccccn1)c1nc2cc(-n3cccc3)c(F)cc2[nH]1 (centres unmarked)")
4700
>>> reported_result("COc1ccnc(C[S+]([O-])c2nc3cc(-n4c(C)ccc4C)c(F)cc3[nH]2)c1C (centres unmarked) [Compound 25]")
5.9
>>> reported_result("Cc1cnc(C[S+]([O-])c2nc3cc(-n4c(C)ccc4C)c(F)cc3[nH]2)cc1C (centres unmarked)")
400
>>> reported_result("CCOCCOc1ccnc(C[S+]([O-])c2nc3cc(-n4cccc4)c(F)cc3[nH]2)c1C (centres unmarked)")
28
>>> reported_result("Cc1c(OCC(F)(F)F)ccnc1C[S+]([O-])c1nc2cc(-n3c(C)ccc3C)c(F)cc2[nH]1 (centres unmarked)")
320
>>> reported_result("Cc1c(OCC(F)(F)C(F)(F)F)ccnc1C[S+]([O-])c1nc2cc(-n3cccc3)c(F)cc2[nH]1 (centres unmarked)")
150

a = COc1cc(C[S+]([O-])c2nc3cc(-n4cccc4)c(F)cc3[nH]2)ncc1C (centres unmarked)
b = COc1ccnc(CSc2nc3cc(-n4cccc4)c(F)cc3[nH]2)c1C
**Query** Select one. Lower IC50: a or b Answer by stating the label of the chosen item.
**Result** b
(b: 420 µM, a: 2000 µM)

###

target or system: H^+ /K^+ -ATPase (Oryctolagus cuniculus, UniProt P27112)
Construct: The gastric mucous membrane was removed from rabbit; from tissue; host or cells: rabbit gastric mucosa, microsomal fraction (77,000 xg)
Sequence (P27112 2-1035 limits assumed): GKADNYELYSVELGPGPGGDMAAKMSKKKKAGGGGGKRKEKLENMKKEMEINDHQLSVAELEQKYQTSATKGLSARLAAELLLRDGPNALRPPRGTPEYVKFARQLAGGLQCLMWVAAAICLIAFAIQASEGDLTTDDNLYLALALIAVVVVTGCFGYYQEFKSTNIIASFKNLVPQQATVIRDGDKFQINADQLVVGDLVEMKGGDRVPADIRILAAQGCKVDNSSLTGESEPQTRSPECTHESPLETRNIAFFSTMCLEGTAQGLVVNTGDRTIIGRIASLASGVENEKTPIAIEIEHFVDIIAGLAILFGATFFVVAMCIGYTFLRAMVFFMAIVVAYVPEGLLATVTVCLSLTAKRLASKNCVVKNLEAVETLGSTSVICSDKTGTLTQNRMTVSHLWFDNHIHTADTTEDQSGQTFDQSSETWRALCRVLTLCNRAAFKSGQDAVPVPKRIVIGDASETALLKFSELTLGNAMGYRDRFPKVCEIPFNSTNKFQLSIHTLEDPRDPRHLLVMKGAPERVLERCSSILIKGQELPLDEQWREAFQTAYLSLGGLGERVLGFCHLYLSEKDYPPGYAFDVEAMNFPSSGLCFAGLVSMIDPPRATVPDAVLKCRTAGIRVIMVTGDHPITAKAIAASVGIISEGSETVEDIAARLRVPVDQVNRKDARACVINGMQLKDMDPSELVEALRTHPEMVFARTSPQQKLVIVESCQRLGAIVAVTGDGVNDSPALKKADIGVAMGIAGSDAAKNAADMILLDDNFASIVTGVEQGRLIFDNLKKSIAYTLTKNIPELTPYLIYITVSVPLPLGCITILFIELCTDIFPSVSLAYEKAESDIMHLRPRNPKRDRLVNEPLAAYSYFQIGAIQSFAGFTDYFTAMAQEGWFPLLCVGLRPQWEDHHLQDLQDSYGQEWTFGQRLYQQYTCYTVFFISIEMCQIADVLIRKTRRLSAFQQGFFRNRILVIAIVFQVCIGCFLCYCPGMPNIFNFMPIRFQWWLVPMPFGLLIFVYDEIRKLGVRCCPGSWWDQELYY
Sequence (P18597 whole entry partner): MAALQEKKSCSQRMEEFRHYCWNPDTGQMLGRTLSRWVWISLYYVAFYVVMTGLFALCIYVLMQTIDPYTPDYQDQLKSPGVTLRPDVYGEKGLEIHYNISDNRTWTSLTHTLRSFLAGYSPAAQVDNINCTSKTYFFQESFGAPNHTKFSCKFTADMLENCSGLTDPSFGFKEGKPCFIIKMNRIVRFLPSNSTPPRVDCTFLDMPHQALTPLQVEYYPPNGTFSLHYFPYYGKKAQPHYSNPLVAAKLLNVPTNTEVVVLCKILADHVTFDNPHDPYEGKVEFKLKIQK
assay overview: Inhibition of H+/K+-ATPase enzyme activity in vitro
Assay type: biochemical, rabbit
setup conditions: IC50, rabbit gastric microsomal H+/K+-ATPase, 5 min pre-incubation at 37° C., 4 mM ATP
assay readout: pIC50
Friendly reminder that pIC50 comes from taking -log10 of the concentration in mol/L.

**Query** Returns the measured pIC50 for the input molecule. Input: Cc1c(OCC(F)(F)C(F)(F)C(F)(F)F)ccnc1C[S+]([O-])c1nc2cc(-n3cccc3)c(F)cc2[nH]1 (stereo not shown)
**Result** 3.33
